- EXPERIMENTAL SYSTEM: Alpha-bungarotoxin (Bungarus multicinctus)
- PROTOCOL SUMMARY: alpha-bungarotoxin binders on microarray, profiling panel, artefact control for SMM control protein annotation, biochemical, small-molecule microarray, Alexa647 label, 635/667 nm fluorescence (AID 1117)
- ASSAY CONTEXT: alpha-BTX-A647 binding fluorescence, higher = more signal
Label rule, in plain words: composite z-score of 0.3 and up is YES, under 0.3 is NO.

Q: Tell me whether composite z-score is at least 0.3 here: C=CC[C@@H]1C=C[C@H](ON=C(C)CCN2CCCCc3nc(C)c(C)cc32)[C@@H](CO)O1
A: NO

Q: Identify whether the reported composite z-score of the following compound is 0.3 or greater: CC(C)CON=C1C[C@@H](O)[C@@H](O)[C@@H]2[C@@H]3C(=O)N(Cc4ccccc4)C(=O)[C@@H]3CC[C@H]12
A: YES

Q: Determine whether measured composite z-score meets or exceeds 0.3 for CCOC(=O)[C@H](Cc1ccccc1)NC(=O)CCC1CC(OC(=O)NCCc2ccc(F)cc2)CC2(CCCC(COC(=O)NCCC(C)C)O2)O1 (stereo partly specified)
A: YES

Q: Does composite z-score meet or surpass 0.3 for O=C1[C@H]2[C@H]3[C@H](O)[C@H](O)CC(=NO[C@@H]4O[C@H](CO)[C@@H](O)[C@H](O)[C@H]4O)[C@@H]3CC[C@H]2C(=O)N1c1cccc(Oc2ccccc2)c1 ?
A: NO

Q: For this compound, is measured composite z-score 0.3 or higher? CCc1cc2c(nc1CC)CCN(CCC(C)=NO[C@@H]1O[C@H](COC(C)=O)[C@@H](OC(C)=O)[C@H](OC(C)=O)[C@H]1OC(C)=O)C2
A: YES

Q: For this compound, is measured composite z-score 0.3 or higher? CO[C@@H]1COC(=O)[C@H](COCc2ccccc2)NC(=O)CC=C[C@@H](C)[C@H](OC)COC(=O)[C@@H](C)NC(=O)CC=C[C@H]1C
A: NO

Q: // inclusive: composite z-score at least 0.3? input: O=C1[C@H]2[C@H]3[C@H](O)[C@H](O)CC(=NO[C@@H]4O[C@H](CO)[C@@H](O)[C@H](O)[C@H]4O)[C@@H]3CC[C@H]2C(=O)N1C[C@@H]1CCCO1
A: NO

Q: # bool: composite z-score of CC(=O)OC[C@H]1O[C@@H](ON=C(C)CCN2CCCCc3nc(C)c(C)cc32)[C@H](OC(C)=O)[C@@H](OC(C)=O)[C@@H]1OC(C)=O >= 0.3
A: NO

Q: Hi, just wondering whether CCOC(=O)[C@H](Cc1ccccc1)NC(=O)CCC1CC(OC(=O)NCc2cccc3ccccc23)CC2(CCCC(COC(=O)NCC3CCCCC3)O2)O1 (stereo partly specified) shows composite z-score of 0.3 or higher.
A: YES

Q: # check: composite z-score of COC(=O)[C@H](C)NC(=O)CCC1CC(OC(=O)NCc2ccc3c(c2)OCO3)CC2(CCCC(COC(=O)NCCCN3CCCC3=O)O2)O1 (stereo partly specified) is greater than or equal to 0.3
A: YES

Q: State whether the measured composite z-score reaches 0.3, counting equality as reaching it, for O=C1[C@H]2[C@H]3[C@H](O)[C@H](O)CC(=NO[C@@H]4O[C@H](CO)[C@@H](O)[C@H](O)[C@H]4O)[C@H]3CC[C@H]2C(=O)N1C[C@@H]1CCCO1
A: NO

Q: Item CCOC(=O)CCN1C(=O)[C@H]2[C@H]3[C@H](O)[C@H](O)CC(=NNC(=O)OCc4ccccc4)[C@H]3CC[C@H]2C1=O with composite z-score of 0.3 or above?
A: NO

Q: Does the compound C=C(C)C(=O)OC[C@H]1CN2[C@@H](CC[C@@H](C)[C@@H]2c2ccc(Br)cc2)C(=O)O1 have recorded composite z-score that is 0.3 or more?
A: YES

Q: Reported composite z-score reaches at least 0.3 for CCOC(=O)[C@H](CC(C)C)NC(=O)CCC1CC(OC(=O)NCCc2ccc(F)cc2)CC2(CCCC(COC(=O)NCc3cccc(C(F)(F)F)c3)O2)O1 (stereo partly specified) ?
A: YES

Q: Check if composite z-score >= 0.3 (inclusive). Item: CC(CCN1CCCc2nc(C)c(C)cc21)=NOC[C@@H](C)[C@H](OCc1ccccc1)C(C)C
A: NO

Q: Kindly determine if composite z-score recorded for CC(=O)OC[C@H]1O[C@H](CC=NOC(C)CN2CCCCc3nc(C)c(C)cc32)C=C[C@@H]1OC(C)=O (stereo partly specified) is above or exactly 0.3.
A: YES
